# tgt: COX-1 (cyclooxygenase 1, ovine) (Ovis aries, UniProt P05979)
# Sequence (P05979 25-600): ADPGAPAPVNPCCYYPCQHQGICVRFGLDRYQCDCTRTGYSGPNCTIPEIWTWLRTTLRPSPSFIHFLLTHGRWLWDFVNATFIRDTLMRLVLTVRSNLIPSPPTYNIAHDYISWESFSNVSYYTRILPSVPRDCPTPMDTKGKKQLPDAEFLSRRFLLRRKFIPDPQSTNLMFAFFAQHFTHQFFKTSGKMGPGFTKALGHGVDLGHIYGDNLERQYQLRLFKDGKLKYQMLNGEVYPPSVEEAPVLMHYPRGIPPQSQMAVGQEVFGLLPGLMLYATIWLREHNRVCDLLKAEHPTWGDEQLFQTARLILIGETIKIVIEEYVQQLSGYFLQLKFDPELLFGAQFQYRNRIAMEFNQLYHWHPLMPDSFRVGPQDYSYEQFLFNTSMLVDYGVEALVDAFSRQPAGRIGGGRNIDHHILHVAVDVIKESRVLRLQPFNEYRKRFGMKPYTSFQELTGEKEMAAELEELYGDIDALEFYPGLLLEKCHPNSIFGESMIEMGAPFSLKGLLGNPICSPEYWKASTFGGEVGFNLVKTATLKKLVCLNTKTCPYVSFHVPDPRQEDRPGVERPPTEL
pIC50: −log10 of the molar value.

input_smiles: C[C@@H]1CC[C@@]2(OC1)O[C@H]1C[C@H]3[C@@H]4CCC5=CC(=O)CC[C@]5(C)[C@H]4C[C@@H](O)[C@]3(C)[C@@]1(O)[C@@H]2C
pIC50: 4.62

====

# tgt: COX-2 (cyclooxygenase 2, human recombinant) (Homo sapiens, UniProt P35354)
# Construct: gene PTGS2
# Sequence (P35354 18-604): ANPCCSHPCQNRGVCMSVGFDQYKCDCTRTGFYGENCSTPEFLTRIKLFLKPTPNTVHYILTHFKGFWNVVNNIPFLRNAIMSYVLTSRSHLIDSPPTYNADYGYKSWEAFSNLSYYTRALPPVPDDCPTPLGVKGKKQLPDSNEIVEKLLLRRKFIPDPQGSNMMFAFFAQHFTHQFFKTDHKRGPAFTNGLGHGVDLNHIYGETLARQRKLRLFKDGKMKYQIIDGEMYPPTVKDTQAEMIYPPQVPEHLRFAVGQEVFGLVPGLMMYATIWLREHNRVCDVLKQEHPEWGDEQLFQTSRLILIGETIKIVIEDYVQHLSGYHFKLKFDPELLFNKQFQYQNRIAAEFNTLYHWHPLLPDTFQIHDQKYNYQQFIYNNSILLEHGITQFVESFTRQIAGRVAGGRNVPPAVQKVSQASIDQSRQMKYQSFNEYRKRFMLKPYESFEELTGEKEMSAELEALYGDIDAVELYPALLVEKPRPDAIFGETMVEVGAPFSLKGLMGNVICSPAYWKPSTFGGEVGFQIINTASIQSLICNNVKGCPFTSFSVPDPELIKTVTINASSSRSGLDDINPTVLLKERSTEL
# method_notes: colorimetric COX inhibitor screening assay (Cayman kit […])
# Format: biochemical
test_readout: IC50 (µM)

compound: C[C@@H]1CC[C@@]2(OC1)O[C@H]1C[C@H]3[C@@H]4CCC5=CC(=O)CC[C@]5(C)[C@H]4C[C@@H](O)[C@]3(C)[C@@]1(O)[C@@H]2C [Asparacosin A]
result_value: 0.6

// data source = paper PMC6443962
